I'd be grateful if you could share measured pIC50 for these entries.
- Measured On: GSK3β (Homo sapiens, UniProt P49841)
- Sequence (P49841 whole entry): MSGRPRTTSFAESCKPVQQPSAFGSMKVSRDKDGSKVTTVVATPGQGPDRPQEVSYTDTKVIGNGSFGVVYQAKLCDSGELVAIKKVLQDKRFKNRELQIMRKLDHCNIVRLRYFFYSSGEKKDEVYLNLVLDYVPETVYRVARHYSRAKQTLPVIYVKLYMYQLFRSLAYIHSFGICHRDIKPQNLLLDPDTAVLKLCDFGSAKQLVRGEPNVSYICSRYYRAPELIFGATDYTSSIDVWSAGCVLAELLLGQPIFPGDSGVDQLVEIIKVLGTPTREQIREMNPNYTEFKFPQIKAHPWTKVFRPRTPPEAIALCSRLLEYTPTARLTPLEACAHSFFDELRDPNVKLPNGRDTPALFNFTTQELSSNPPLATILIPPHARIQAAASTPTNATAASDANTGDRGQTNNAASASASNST
- Test Summary: biochemical
Answers are plain numbers, as −log10 of the molar value.

CC[C@@]1(c2cccc(C(F)(F)F)c2)C2=C(CC(C)(C)CC2=O)Nc2n[nH]cc21 (stereo in doubt) [Compound 223] : 7.82
CC(C)(C)Cc1[nH]nc2c1C(C)(c1ccccc1)C1=C(CC(C)(C)CC1=O)N2 (racemic) [Compound 271] : 7.60
CC(C)c1[nH]nc2c1[C@@]1(CCc3ccccc31)C1=C(CC(C)(C)CC1=O)N2 (stereo in doubt) [Compound 242] : 7.80

Consider now this further compound.
Enquiry: Fill in the blank: the reported pIC50 of CC[C@@]1(c2cc(F)cc(F)c2)C2=C(CC(C)(C)CC2=O)Nc2n[nH]cc21 (stereo in doubt) [Compound 216] is ____.
Return: 5.39

* * *

- Measured On: UniProt:P49840
- Test Summary: biochemical
Value Type: log10 of IC50 (log10 of the value in nM)
Base-10 log of IC50, unit nM.

CC(C)c1[nH]nc2c1[C@]1(CCc3ccccc31)C1=C(CC(C)(C)CC1=O)N2 (stereo in doubt) [Compound 243] : 2.25
Cc1ccccc1[C@@H]1C2=C(CC(C)(C)CC2=O)Nc2n[nH]c(C(C)C)c21 [Compound 319] : 3.56
CC(C)[C@@]1(c2ccccc2)C2=C(CC(C)(C)CC2=O)Nc2n[nH]cc21 (stereo in doubt) [Compound 232] : 3.00
CC[C@]1(c2cccc(Cl)c2)C2=C(CC(C)(C)CC2=O)Nc2n[nH]cc21 (stereo in doubt) [Compound 220] : 3.56

For every listed record, write down its log10 of IC50.
1. COc1ccccc1[C@]1(C)C2=C(CC(C)(C)CC2=O)Nc2n[nH]c(C3CC(F)(F)C3)c21 (stereo in doubt) [Compound 254]
2. CC(C)c1[nH]nc2c1[C@@](C)(c1ccccc1F)C1=C(CC(C)(C)CC1=O)N2 (stereo in doubt) [Compound 313]
3. CC1(C)CC(=O)C2=C(C1)Nc1n[nH]c(C3CC(F)(F)C3)c1[C@@]2(C)c1cccc(C(F)(F)F)c1 (stereo in doubt) [Compound 249]
4. CC(C)c1[nH]nc2c1[C@@H](c1ccccc1Cl)C1=C(CC(C)(C)CC1=O)N2 [Compound 314]
5. CC1(C)CC(=O)C2=C(C1)Nc1n[nH]c(C3CC(F)(F)C3)c1[C@@]21CCc2c(F)cccc21 [Compound 262]
6. CC1(C)CC(=O)C2=C(C1)Nc1n[nH]c(C3CC(F)(F)C3)c1[C@]21CCc2c(F)cccc21 [Compound 263]
7. CC1(C)CC(=O)C2=C(C1)Nc1n[nH]c(C3CCCCC3)c1C2(C)c1ccccc1 (racemic) [Compound 303]

Return:
1. 3.97
2. 3.64
3. 3.68
4. 1.90
5. 2.73
6. 3.17
7. 3.27

For every listed record, write down its log10 of IC50.
1. CCC(C)(C)Cc1[nH]nc2c1[C@@](C)(c1ccccc1)C1=C(CC(C)(C)CC1=O)N2 (stereo in doubt) [Compound 292]
2. CC(C)(C)Cc1[nH]nc2c1[C@](C)(c1ccc(F)cc1)C1=C(CC(C)(C)CC1=O)N2 (stereo in doubt) [Compound 276]
3. CC[C@@]1(c2cccc(C(C)(C)C)c2)C2=C(CC(C)(C)CC2=O)Nc2n[nH]cc21 (stereo in doubt) [Compound 226]
4. CC1(C)CC(=O)C2=C(C1)Nc1n[nH]c(F)c1C2(C)c1ccccc1 (centres unmarked) [Compound 241]
5. CCC1(c2cccc(Cl)c2)C2=C(CC(C)(C)CC2=O)Nc2n[nH]cc21 (racemic) [Compound 218]
6. CC1(C)CC(=O)C2=C(C1)Nc1n[nH]cc1[C@@]2(C)c1cccc(F)c1 (stereo in doubt) [Compound 203]
7. CCC(C)(C)Cc1[nH]nc2c1[C@@]1(CCc3cc(F)ccc31)C1=C(CC(C)(C)CC1=O)N2 (stereo in doubt) [Compound 293]

Return:
4.08
3.03
1.71
2.95
1.73
3.98
3.16

For every listed record, write down its log10 of IC50.
1. CC1(C)CC(=O)C2=C(C1)Nc1n[nH]c(C3CC(F)(F)C3)c1[C@]21COc2ccccc21 [Compound 257]
2. CC1(C)CC(=O)C2=C(C1)Nc1n[nH]c(C3CCCC3)c1[C@@]2(C)c1ccccc1 (stereo in doubt) [Compound 302]
3. CC[C@@]1(c2ccccc2)C2=C(CC3(CCCCC3)CC2=O)Nc2n[nH]cc21 (stereo in doubt) [Compound 234]
4. CC(C)(C)Cc1[nH]nc2c1[C@@](C)(c1ccccc1)C1=C(CC(C)(C)CC1=O)N2 (stereo in doubt) [Compound 273]

Return:
1. 2.53
2. 4.44
3. 2.20
4. 3.83

* * *

I'd be grateful if you could share measured IC50 for these entries.
- Measured On: GSK3α (Homo sapiens, UniProt P49840)
- Sequence (P49840 whole entry): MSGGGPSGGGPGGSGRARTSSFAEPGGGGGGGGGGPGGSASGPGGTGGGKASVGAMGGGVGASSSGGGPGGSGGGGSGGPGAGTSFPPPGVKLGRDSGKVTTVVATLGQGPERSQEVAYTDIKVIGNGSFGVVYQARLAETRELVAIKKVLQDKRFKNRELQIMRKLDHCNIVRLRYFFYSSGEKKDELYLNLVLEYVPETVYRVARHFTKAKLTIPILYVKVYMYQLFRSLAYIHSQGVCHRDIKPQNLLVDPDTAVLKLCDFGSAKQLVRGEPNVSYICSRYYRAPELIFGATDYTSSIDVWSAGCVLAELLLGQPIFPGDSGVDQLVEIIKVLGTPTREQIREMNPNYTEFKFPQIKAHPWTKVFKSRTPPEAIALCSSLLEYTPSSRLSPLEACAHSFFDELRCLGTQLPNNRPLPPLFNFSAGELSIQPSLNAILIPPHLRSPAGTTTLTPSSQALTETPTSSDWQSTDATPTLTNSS
- Test Summary: biochemical
One number for each entry, in nM.

For every listed record, write down its IC50.
1. CCC1(c2ccccc2)C2=C(CC(C)(C)CC2=O)Nc2n[nH]c(C3CC3)c21 (racemic)
2. CC[C@@]1(c2cc(Cl)cc(Cl)c2)C2=C(CC(C)(C)CC2=O)Nc2n[nH]cc21 (stereo in doubt)
3. CC[C@]1(c2ccccc2)C2=C(CC(C)(C)CC2=O)Nc2n[nH]c(F)c21 (stereo in doubt)

Return:
1. 23
2. 104
3. 12300

For every listed record, write down its IC50.
1. CC[C@]1(c2cc(Cl)cc(Cl)c2)C2=C(CC(C)(C)CC2=O)Nc2n[nH]cc21 (stereo in doubt)
2. CC1(C)CC(=O)C2=C(C1)Nc1n[nH]c(C3CC(F)(F)C3)c1[C@@]21CCc2cc(F)ccc21
3. CC(C)(C)Cc1[nH]nc2c1C1(CCc3ccccc31)C1=C(CC(C)(C)CC1=O)N2 (racemic)
4. CC(C)Cc1[nH]nc2c1[C@](C)(c1ccccc1)C1=C(CC(C)(C)CC1=O)N2 (stereo in doubt)

Return:
1: 1750; 2: 710; 3: 82; 4: 237

* * *

I'd be grateful if you could share measured IC50 for these entries.
- Measured On: GSK3α (Homo sapiens, UniProt P49840)
- Test Summary: biochemical
Give bare numbers, in nM.

Examples with their reported IC50 follow.
CC[C@]1(c2ccccc2)C2=C(CC3(COC3)CC2=O)Nc2n[nH]cc21 (stereo in doubt) : 26900
CC1(C)CC(=O)C2=C(C1)Nc1n[nH]c(C3CC(F)(F)C3)c1[C@@]2(C)c1ccccc1 (stereo in doubt) : 8220
CC[C@@]1(c2ccccc2)C2=C(CC(C)(C)CC2=O)Nc2n[nH]c(F)c21 (stereo in doubt) : 150
CC1(C)CC(=O)C2=C(C1)Nc1n[nH]cc1[C@]2(C)c1cccc(Cl)c1 (stereo in doubt) : 37
COc1ccccc1C1C2=C(CC(C)(C)CC2=O)Nc2n[nH]c(CC(C)(C)C)c21 (racemic) : 253

For every listed record, write down its IC50.
1. CC1(C)CC(=O)C2=C(C1)Nc1n[nH]c(C3CC(F)(F)C3)c1C21CCc2ccccc21 (racemic)
2. CC1(C)CC(=O)C2=C(C1)Nc1n[nH]cc1[C@]2(C)c1cccc(C#N)c1 (stereo in doubt)
3. CC1(C)CC(=O)C2=C(C1)Nc1n[nH]c(Cc3ccccc3)c1[C@]2(C)c1ccccc1 (stereo in doubt)
4. CC(C)(C)Cc1[nH]nc2c1[C@](C)(c1ccccc1)C1=C(CC(C)(C)CC1=O)N2 (stereo in doubt)
5. CC[C@@]1(c2cccc(C(F)(F)F)c2)C2=C(CC(C)(C)CC2=O)Nc2n[nH]cc21 (stereo in doubt)

Return:
185
6
607
215
2

For every listed record, write down its IC50.
1. CC1(C)CC(=O)C2=C(C1)Nc1n[nH]c(C3CC(F)(F)C3)c1C21CCc2c(F)cccc21 (racemic)
2. CC1(C)CC(=O)C2=C(C1)Nc1n[nH]c(C3CCCCC3)c1[C@@]2(C)c1ccccc1 (stereo in doubt)
3. CC(C)c1[nH]nc2c1[C@](C)(c1ccccc1F)C1=C(CC(C)(C)CC1=O)N2 (stereo in doubt)
4. COc1cc(F)ccc1[C@H]1C2=C(CC(C)(C)CC2=O)Nc2n[nH]c(C(C)C)c21
5. CC(C)Cc1[nH]nc2c1[C@@](C)(c1ccccc1)C1=C(CC(C)(C)CC1=O)N2 (stereo in doubt)

Return:
426
17400
386
271
22300

For every listed record, write down its IC50.
1. CC(C)c1[nH]nc2c1[C@@](C)(c1ccccc1)C1=C(CC(C)(C)CC1=O)N2 (stereo in doubt)
2. CC1(C)CC(=O)C2=C(C1)Nc1n[nH]c(C3CCCC3)c1C2(C)c1ccccc1 (racemic)
3. CC1(C)CC(=O)C2=C(C1)Nc1n[nH]c(C3CC(F)(F)C3)c1[C@]21CCOc2ccccc21
4. CC1(C)CC(=O)C2=C(C1)Nc1n[nH]c(C3CC(F)(F)C3)c1[C@@]21COc2ccccc21

Return:
479
1520
1630
13

Source listed as patent US20160375006A1.
